Cited source: patent US8614327B2

- ASSAYED SYSTEM: ΔF508-CFTR (Homo sapiens, UniProt P13569, DEL508-508)
- Sequence (P13569 with tags, fused parts or gaps DEL508-508): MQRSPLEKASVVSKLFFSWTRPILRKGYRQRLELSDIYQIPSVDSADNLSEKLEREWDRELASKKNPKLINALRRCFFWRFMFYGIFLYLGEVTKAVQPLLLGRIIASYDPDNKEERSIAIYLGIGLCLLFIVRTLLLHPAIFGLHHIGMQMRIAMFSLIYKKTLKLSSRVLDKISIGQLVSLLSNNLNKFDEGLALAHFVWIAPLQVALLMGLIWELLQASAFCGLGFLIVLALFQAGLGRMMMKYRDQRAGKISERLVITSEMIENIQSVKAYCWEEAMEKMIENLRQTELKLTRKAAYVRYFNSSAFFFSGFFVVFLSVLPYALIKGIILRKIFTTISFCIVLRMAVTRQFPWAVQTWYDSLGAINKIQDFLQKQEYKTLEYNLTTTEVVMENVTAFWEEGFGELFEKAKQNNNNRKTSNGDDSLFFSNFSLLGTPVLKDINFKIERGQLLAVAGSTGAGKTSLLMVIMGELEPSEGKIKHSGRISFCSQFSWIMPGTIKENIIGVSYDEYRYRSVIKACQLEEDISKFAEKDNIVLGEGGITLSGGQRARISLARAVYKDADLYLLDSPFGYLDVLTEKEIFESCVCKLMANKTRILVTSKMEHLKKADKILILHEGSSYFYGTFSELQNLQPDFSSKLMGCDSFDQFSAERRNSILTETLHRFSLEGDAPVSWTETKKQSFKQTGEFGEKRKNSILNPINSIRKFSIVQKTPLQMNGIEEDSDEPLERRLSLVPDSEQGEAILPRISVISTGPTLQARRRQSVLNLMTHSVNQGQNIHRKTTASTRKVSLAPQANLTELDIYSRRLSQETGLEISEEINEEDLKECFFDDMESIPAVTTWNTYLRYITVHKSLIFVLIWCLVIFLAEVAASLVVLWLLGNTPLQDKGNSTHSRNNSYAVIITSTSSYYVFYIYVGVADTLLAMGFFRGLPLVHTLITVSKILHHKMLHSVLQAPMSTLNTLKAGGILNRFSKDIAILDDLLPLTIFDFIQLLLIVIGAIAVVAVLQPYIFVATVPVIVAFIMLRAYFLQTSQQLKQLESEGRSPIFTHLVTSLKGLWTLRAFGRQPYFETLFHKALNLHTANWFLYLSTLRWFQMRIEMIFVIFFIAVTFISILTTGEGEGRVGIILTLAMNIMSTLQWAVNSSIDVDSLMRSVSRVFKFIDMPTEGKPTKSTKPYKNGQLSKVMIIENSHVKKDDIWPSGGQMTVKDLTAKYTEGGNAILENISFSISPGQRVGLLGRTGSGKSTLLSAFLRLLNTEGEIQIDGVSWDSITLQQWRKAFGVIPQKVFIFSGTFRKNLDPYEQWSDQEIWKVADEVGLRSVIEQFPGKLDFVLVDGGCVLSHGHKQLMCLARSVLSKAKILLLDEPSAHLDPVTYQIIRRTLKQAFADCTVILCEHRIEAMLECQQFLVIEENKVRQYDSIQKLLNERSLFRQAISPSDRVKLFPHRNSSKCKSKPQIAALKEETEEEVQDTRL
- MEASUREMENT NOTES: Membrane potential optical (FRET/VIPR) assay, identification of potentiator compounds
- RUN PARAMETERS: Table 3; assay not given
pEC50: −log10 of the molar value.
PROPERTY NAME: pEC50

The cases that follow already have their pEC50 on record.
{"MOLECULE": "C[C@H]1CCCN1c1ccc(NC(=O)c2c[nH]c3cccc(C(F)(F)F)c3c2=O)c(C(F)(F)F)c1 [Compound 669]", "ASSAYED SYSTEM": "ΔF508-CFTR (Homo sapiens, UniProt P13569, DEL508-508)", "PROPERTY NAME": "pEC50", "TEST RESULT": "> 5.00"}
{"MOLECULE": "O=C(Nc1ccc(N2CCN(CCO)CC2)cc1C(F)(F)F)c1c[nH]c2ccccc2c1=O [Compound 673]", "ASSAYED SYSTEM": "ΔF508-CFTR (Homo sapiens, UniProt P13569, DEL508-508)", "PROPERTY NAME": "pEC50", "TEST RESULT": "> 5.00"}
{"MOLECULE": "CC(=O)N1CC2(CC2)c2ccc(NC(=O)c3c[nH]c4ccccc4c3=O)cc21 [Compound 175]", "ASSAYED SYSTEM": "ΔF508-CFTR (Homo sapiens, UniProt P13569, DEL508-508)", "PROPERTY NAME": "pEC50", "TEST RESULT": "4.60 to 5.00"}
{"MOLECULE": "O=C(Nc1ccccc1-c1ccccn1)c1c[nH]c2ccccc2c1=O [Compound 692]", "ASSAYED SYSTEM": "ΔF508-CFTR (Homo sapiens, UniProt P13569, DEL508-508)", "PROPERTY NAME": "pEC50", "TEST RESULT": "> 5.00"}
{"MOLECULE": "CCc1cccc(C(C)CC)c1NC(=O)c1c[nH]c2ccccc2c1=O (stereo not shown) [Compound 322]", "ASSAYED SYSTEM": "ΔF508-CFTR (Homo sapiens, UniProt P13569, DEL508-508)", "PROPERTY NAME": "pEC50", "TEST RESULT": "> 5.00"}

For each listed entry, give its pEC50.
1. CC(C)(C)c1ccc(NC(=O)c2cnc3ccccc3c2OCc2ccccc2)cc1O [Compound 275]
2. O=C(Nc1ccc(Cl)cn1)c1c[nH]c2ccccc2c1=O [Compound 170]
3. Cc1ccc(-c2ccccc2NC(=O)c2c[nH]c3ccccc3c2=O)o1 [Compound 311]

Reply:
4.60 to 5.00
4.22 to 4.60
> 5.00

For each listed entry, give its pEC50.
1. O=C(Nc1ccc(S(=O)(=O)Nc2ccccn2)cc1)c1c[nH]c2ccccc2c1=O [Compound 21]
2. CC(C)(C)c1cc2cc[nH]c2cc1NC(=O)c1c[nH]c2ccc(O)cc2c1=O [Compound 679]

Reply:
1: 4.22 to 4.60; 2: > 5.00
